Source listed as the Immune Epitope Database (IEDB).

Listed sequences paired with reported Kd
ASSAYED_SYSTEM: HLA-B*15:17
TEST_PROTOCOL: IEDB peptide-MHC binding, purified MHC/direct/fluorescence; filed as Kd, often an IC50 or EC50 that approximates it; bounds were set here for any values at or beyond the usual limits of such assays
EXPERIMENTAL_PARAMETERS: source organism: Marburg virus - Musoke, Kenya, 1980

>  <SEQUENCE_ENTRY>
RVIGYILFF

>  <MEASURE>
Kd

>  <RESULT>
129 nM

$$$$
>  <SEQUENCE_ENTRY>
YGVKNLFDW

>  <MEASURE>
Kd

>  <RESULT>
155 nM

$$$$

# context switch: different sequence, same Kd
Give the measured Kd for `NQQVTNSKY`
≥ 20000 nM

* * *

Listed sequences paired with reported pKd
ASSAYED_SYSTEM: HLA-A*33:01
TEST_PROTOCOL: IEDB peptide-MHC binding, purified MHC/competitive/radioactivity; filed as Kd, often an IC50 or EC50 that approximates it; bounds were set here for any values at or beyond the usual limits of such assays
EXPERIMENTAL_PARAMETERS: source organism: Dengue virus 1 Brazil/97-11/1997
Please report pKd as the negative decimal logarithm of the molar concentration, giving only the number.

Give the measured pKd for `EATARGARR`
7.44

Give the measured pKd for `DTRTPRAKR`
7.53

* * *

ASSAYED_SYSTEM: HLA-B*07:02
TEST_PROTOCOL: IEDB peptide-MHC binding, purified MHC/competitive/fluorescence; filed as Kd, often an IC50 or EC50 that approximates it; bounds were set here for any values at or beyond the usual limits of such assays
EXPERIMENTAL_PARAMETERS: source organism: Influenza A virus
MEASURE: Kd (nM)
Numbers only; they are read as nM.

# return Kd of `APSPYNSRF` (system: HLA-B*07:02)
7.1

* * *

ASSAYED_SYSTEM: HLA-A*68:02
TEST_PROTOCOL: IEDB peptide-MHC binding, purified MHC/competitive/radioactivity; filed as Kd, often an IC50 or EC50 that approximates it; bounds were set here for any values at or beyond the usual limits of such assays
EXPERIMENTAL_PARAMETERS: source organism: Dengue virus 1 Brazil/97-11/1997
MEASURE: pKd
Please report pKd as the negative decimal logarithm of the molar concentration, giving only the number.

# return pKd of `SGIFVTNEV` (system: HLA-A*68:02)
7.33

* * *

ASSAYED_SYSTEM: HLA-A*23:01
TEST_PROTOCOL: IEDB peptide-MHC binding, purified MHC/competitive/radioactivity; filed as Kd, often an IC50 or EC50 that approximates it; bounds were set here for any values at or beyond the usual limits of such assays
EXPERIMENTAL_PARAMETERS: source organism: Vaccinia virus Copenhagen
MEASURE: pKd
Please report pKd as the negative decimal logarithm of the molar concentration, giving only the number.

Give the measured pKd for `FGDSEEPVTY`
5.83

* * *

ASSAYED_SYSTEM: HLA-B*53:01
TEST_PROTOCOL: IEDB peptide-MHC binding, purified MHC/competitive/radioactivity; filed as Kd, often an IC50 or EC50 that approximates it; bounds were set here for any values at or beyond the usual limits of such assays
EXPERIMENTAL_PARAMETERS: source organism: Hepatitis C virus (isolate H)
MEASURE: Kd (µM)
Numbers only; they are read as µM.

# return Kd of `HPALVFDIT` (system: HLA-B*53:01)
0.65

* * *

Listed sequences paired with reported Kd
ASSAYED_SYSTEM: HLA-B*35:01
TEST_PROTOCOL: IEDB peptide-MHC binding, purified MHC/competitive/radioactivity; filed as Kd, often an IC50 or EC50 that approximates it; bounds were set here for any values at or beyond the usual limits of such assays
EXPERIMENTAL_PARAMETERS: source organism: Vaccinia virus WR
Numbers only; they are read as µM.

>  <SEQUENCE_ENTRY>
MPYNILDRII

>  <RESULT_NUMBER>
1.64

$$$$
>  <SEQUENCE_ENTRY>
MPEKRNVVV

>  <RESULT_NUMBER>
0.412

$$$$
>  <SEQUENCE_ENTRY>
QIFEVYWYL

>  <RESULT_NUMBER>
6.5

$$$$
>  <SEQUENCE_ENTRY>
TPNNLNKIQL

>  <RESULT_NUMBER>
4.43

$$$$

Give the measured Kd for `DPEKFNARM`
0.948

* * *

ASSAYED_SYSTEM: HLA-C*06:02
TEST_PROTOCOL: IEDB peptide-MHC binding, purified MHC/direct/fluorescence; filed as Kd, often an IC50 or EC50 that approximates it; bounds were set here for any values at or beyond the usual limits of such assays
EXPERIMENTAL_PARAMETERS: source organism: Vibrio antiquarius
MEASURE: pKd
Please report pKd as the negative decimal logarithm of the molar concentration, giving only the number.

Give the measured pKd for `FAMTVPLLI`
7.59

* * *

ASSAYED_SYSTEM: HLA-B*14:02
TEST_PROTOCOL: IEDB peptide-MHC binding, purified MHC/competitive/fluorescence; filed as Kd, often an IC50 or EC50 that approximates it; bounds were set here for any values at or beyond the usual limits of such assays
EXPERIMENTAL_PARAMETERS: source organism: Escherichia coli 536
pKd: −log10 of the molar value.
MEASURE: pKd

Give the measured pKd for `YQAENSTAE`
≤ 5.30

* * *

ASSAYED_SYSTEM: HLA-A*11:01
TEST_PROTOCOL: IEDB peptide-MHC binding, purified MHC/direct/fluorescence; filed as Kd, often an IC50 or EC50 that approximates it; bounds were set here for any values at or beyond the usual limits of such assays
EXPERIMENTAL_PARAMETERS: source organism: Francisella tularensis subsp. holarctica LVS
MEASURE: pKd
Please report pKd as the negative decimal logarithm of the molar concentration, giving only the number.

Give the measured pKd for `AIYESNIGY`
7.82

* * *

Listed sequences paired with reported pKd
ASSAYED_SYSTEM: HLA-A*26:01
TEST_PROTOCOL: IEDB peptide-MHC binding, purified MHC/competitive/radioactivity; filed as Kd, often an IC50 or EC50 that approximates it; bounds were set here for any values at or beyond the usual limits of such assays
EXPERIMENTAL_PARAMETERS: source organism: Mammarenavirus juninense
pKd: −log10 of the molar value.

// solved cases for pKd follow
>  <SEQUENCE_ENTRY>
YCNYTKFWY

>  <ASSAYED_SYSTEM>
HLA-A*26:01

>  <pKd>
≤ 4.11

$$$$
>  <SEQUENCE_ENTRY>
VGEEFFHQY

>  <ASSAYED_SYSTEM>
HLA-A*26:01

>  <pKd>
≤ 4.11

$$$$

# context switch: different sequence, same pKd
Give the measured pKd for `LAGLFIDAGY`
≤ 4.36

* * *

ASSAYED_SYSTEM: HLA-A*01:01
TEST_PROTOCOL: IEDB peptide-MHC binding, purified MHC/competitive/radioactivity; filed as Kd, often an IC50 or EC50 that approximates it; bounds were set here for any values at or beyond the usual limits of such assays
EXPERIMENTAL_PARAMETERS: source organism: Dengue virus 1 Brazil/97-11/1997
Listed sequences paired with reported pKd
Please report pKd as the negative decimal logarithm of the molar concentration, giving only the number.

// solved cases for pKd follow
>  <SEQUENCE_ENTRY>
LTEFQPHQLW

>  <ASSAYED_SYSTEM>
HLA-A*01:01

>  <MEASURE>
pKd

>  <RESULT_NUMBER>
4.89

$$$$
>  <SEQUENCE_ENTRY>
QLSKSEFNTY

>  <ASSAYED_SYSTEM>
HLA-A*01:01

>  <MEASURE>
pKd

>  <RESULT_NUMBER>
5.86

$$$$
>  <SEQUENCE_ENTRY>
LTEFQPHQL

>  <ASSAYED_SYSTEM>
HLA-A*01:01

>  <MEASURE>
pKd

>  <RESULT_NUMBER>
5.06

$$$$

# context switch: different sequence, same pKd
# return pKd of `RTPQDNQLAY` (system: HLA-A*01:01)
6.15

* * *

ASSAYED_SYSTEM: HLA-B*53:01
TEST_PROTOCOL: IEDB peptide-MHC binding, purified MHC/competitive/radioactivity; filed as Kd, often an IC50 or EC50 that approximates it; bounds were set here for any values at or beyond the usual limits of such assays
EXPERIMENTAL_PARAMETERS: source organism: Hepacivirus hominis
pKd: −log10 of the molar value.
MEASURE: pKd

Give the measured pKd for `RNWAHSSL`
≤ 4.31

* * *

ASSAYED_SYSTEM: HLA-A*68:01
TEST_PROTOCOL: IEDB peptide-MHC binding, purified MHC/competitive/radioactivity; filed as Kd, often an IC50 or EC50 that approximates it; bounds were set here for any values at or beyond the usual limits of such assays
EXPERIMENTAL_PARAMETERS: source organism: Mammarenavirus tacaribeense
pKd: −log10 of the molar value.
MEASURE: pKd

# return pKd of `NCKCCWFADK` (system: HLA-A*68:01)
≤ 4.68
